- assayed-target: hCA IX (Homo sapiens, UniProt Q16790)
- Construct: made in house
- assay-protocol: stopped-flow CO2 hydrase assay, hCA IX
- Assay type: biochemical
- reported-conditions: coumarin-containing squaramides; incubation time 6 h; mean from three assays
measurement-label: Ki (nM)

Worked cases, Ki given:
compound | assayed-target | Ki / nM
Cc1c(C)c2ccc(OCCCCCNc3c(Nc4ccc(F)cc4)c(=O)c3=O)cc2oc1=O [Compound 16l] | hCA IX (Homo sapiens, UniProt Q16790) | 113
Cc1cc(=O)oc2cc(OCCCCCNc3c(Nc4ccc(Br)cc4)c(=O)c3=O)ccc12 [Compound 16h] | hCA IX (Homo sapiens, UniProt Q16790) | 46.2
Cc1cc(=O)oc2cc(OCCCCCNc3c(Nc4ccc(I)cc4)c(=O)c3=O)ccc12 [Compound 16i] | hCA IX (Homo sapiens, UniProt Q16790) | 57
Cc1cc(=O)oc2cc(OCCCNc3c(Nc4ccccc4)c(=O)c3=O)ccc12 [Compound 16a] | hCA IX (Homo sapiens, UniProt Q16790) | 79.3
COc1ccc(Nc2c(NCCCCCOc3ccc4c(C)cc(=O)oc4c3)c(=O)c2=O)cc1 [Compound 16e] | hCA IX (Homo sapiens, UniProt Q16790) | 59.7

P = Cc1cc(=O)oc2cc(OCCCCCNc3c(Nc4ccc(Cl)cc4)c(=O)c3=O)ccc12 [Compound 16g]
Q = Cc1c(C)c2ccc(OCCCCCNc3c(Nc4ccc(Br)cc4)c(=O)c3=O)cc2oc1=O [Compound 16n]
R = Cc1cc(=O)oc2cc(OCCCCCNc3c(Nc4ccccc4)c(=O)c3=O)ccc12 [Compound 16b]
stdin: // ascending sort on recorded Ki Output spec: a listing of the labels in the requested order.
stdout: R, P, Q

----------
- assayed-target: hCA IX (Homo sapiens, UniProt Q16790)
- Construct: made in house
- assay-protocol: stopped-flow CO2 hydrase assay, hCA IX
- Assay type: biochemical
- reported-conditions: Ki (CA I)/Ki (CA IX)
measurement-label: S.I. I/IX

compound | measurement-label | measured-value
NS(=O)(=O)c1ccc(CCNc2c(Nc3ccc(Br)cc3)c(=O)c2=O)cc1 [Compound 5d] | S.I. I/IX | 6.8
COc1ccc(Nc2c(NCCc3ccc(S(N)(=O)=O)cc3)c(=O)c2=O)cc1 [Compound 5b] | S.I. I/IX | 4.0

P = COc1c(Nc2cccc(S(N)(=O)=O)c2)c(=O)c1=O [Compound 10]
Q = NS(=O)(=O)c1ccc(CCNc2c(Nc3ccc(I)cc3)c(=O)c2=O)cc1 [Compound 5e]
R = NS(=O)(=O)c1cccc(Nc2c(Nc3ccccc3)c(=O)c2=O)c1 [Compound 11]
stdin: Parameters: sort_field (S.I. I/IX), sort_dir (desc). Return the labels ranked in the requested order, please.
stdout: R, Q, P
(R: 20, Q: 5.1, P: 3.0)

----------
- assayed-target: hCA II (Homo sapiens, UniProt P00918)
- Construct: made in house
- assay-protocol: stopped-flow CO2 hydrase assay, hCA II
- Type: biochemical
- reported-conditions: sulfonamido-containing squaramides; mean from 3 assays, stopped flow
pKi: −log10 of the molar value.
measurement-label: pKi

smiles-representation | pKi
NS(=O)(=O)c1ccc(CCNc2c(Nc3ccc(I)cc3)c(=O)c2=O)cc1 | 6.07

1 = NS(=O)(=O)c1ccc(CCNc2c(Nc3ccccc3)c(=O)c2=O)cc1
2 = COc1c(Nc2cccc(S(N)(=O)=O)c2)c(=O)c1=O
stdin: In terms of reported pKi, does 1 or 2 have the smaller number? Please identify the chosen entry by its label.
stdout: 1
(1: 6.14, 2: 7.39)
